# Test system: Veronica persica
# TEST_DETAILS: Post-emergence herbicidal action against VERPE
# Assay type: in vivo
# PARTICULARS: 80 g a.i./ha
Below: a set of entries, each annotated with reported Herbicidal action against [%] VERPE.
# value in %; strip the unit string

See these solved cases before continuing.
[[record]]
compound = "CSCCOC(=O)C1C=CC(NC(=O)C2(C)CC(c3cc(C#N)cc(C#N)c3)=NO2)C1 (mixture of isomers) [Example I-46]"
quantitative_result = 90

[[record]]
compound = "CSCCOC(=O)C1C=CC(NC(=O)C2(C)CC(c3cccc(C#N)c3)=NO2)C1 (stereo not shown) [Example I-40]"
quantitative_result = 80

[[record]]
compound = "C=CC1(C(=O)NC2C=CC(C(=O)OCCSC)C2)CC(c2cc(F)cc(F)c2)=NO1 (stereo not shown) [Example I-18]"
quantitative_result = 90

[[record]]
compound = "C=CC1(C(=O)NC2C=CC(C(=O)OCCSC)C2)CC(c2cc(C)cc(C)c2)=NO1 (mixture of isomers) [Example I-45]"
quantitative_result = 80

[[record]]
compound = "CSCCOC(=O)C1C=CC(NC(=O)C2(C(F)(F)F)CC(c3cc(F)cc(C#N)c3)=NO2)C1 (mixture of isomers) [Example I-37]"
quantitative_result = 90


Request: Item under review: CSCCOC(=O)C1C=CC(NC(=O)C2(C3CC3)CC(c3cc(F)cc(F)c3)=NO2)C1 (stereo not shown) [Example I-30] . Reported Herbicidal action against [%] VERPE?
Result: 90

Request: # input compound: CSCCOC(=O)C1C=CC(NC(=O)C2(C)CC(c3cc(Cl)cc(C#N)c3)=NO2)C1 (mixture of isomers) [Example I-49] ; wanted: its Herbicidal action against [%] VERPE
Result: 90

---

# Test system: Lolium rigidum
# TEST_DETAILS: Post-emergence herbicidal action against LOLRI
# Format: in vivo
# PARTICULARS: 20 g a.i./ha, visual rating about 3 weeks after treatment
EXPERIMENTAL_READOUT: Herbicidal action against [%] LOLRI

[[record]]
compound = "COC1(C(=O)NC2C=CC(C(=O)OCCSC)C2)CC(c2cc(F)cc(F)c2)=NO1 (stereo not shown) [Example I-19]"
target = "Lolium rigidum"
result = "90%"


Request: Look up Herbicidal action against [%] LOLRI for this compound: CCSCCOC(=O)C1C=CC(NC(=O)C2(C)CC(c3cc(F)cc(F)c3)=NO2)C1 (stereo not shown)
Result: 90%

Request: Herbicidal action against [%] LOLRI for COC1(C(=O)NC2C=CC(C(=O)OCCSC(F)(F)F)C2)CC(c2cc(F)cc(F)c2)=NO1 (stereo not shown) ?
Result: 100%

Request: Fill blank: measured Herbicidal action against [%] LOLRI of the compound C=CC1(C(=O)NC2C=CC(C(=O)OCCSC)C2)CC(c2cc(C)cc(F)c2)=NO1 (stereo not shown) [Example I-56] is ____.
Result: 80%

---

// Herbicidal action against [%] ECHCG lookup, one value per entry
# System: Echinochloa crus-galli
# TEST_DETAILS: Post-emergence herbicidal action against ECHCG
# Assay type: in vivo
# PARTICULARS: 20 g a.i./ha, visual rating about 3 weeks after treatment
Give just the number in %; leave the unit off.

Examples with their reported Herbicidal action against [%] ECHCG follow.
[[record]]
compound = "CSCCOC(=O)C1C=CC(NC(=O)C2(CF)CC(c3cc(F)cc(C#N)c3)=NO2)C1 (stereo not shown) [Example I-65]"
quantitative_result = 80

[[record]]
compound = "CCSCCOC(=O)C1C=CC(NC(=O)C2(C)CC(c3cc(F)cc(F)c3)=NO2)C1 (stereo not shown) [Example I-02]"
quantitative_result = 90


Request: Would you mind telling me what Herbicidal action against [%] ECHCG value was observed for CC(C)CSCCOC(=O)C1C=CC(NC(=O)C2(C)CC(c3cc(F)cc(F)c3)=NO2)C1 (stereo not shown) [Example I-08] ?
Result: 90

Request: // query Herbicidal action against [%] ECHCG value for entry CSCCOC(=O)C1C=CC(NC(=O)C2(CO)CC(c3cc(F)cc(F)c3)=NO2)C1 (stereo not shown) [Example I-70]
Result: 90

Request: Which Herbicidal action against [%] ECHCG is reported for this compound? CC1(C(=O)NC2C=CC(C(=O)OCCSC3CCCCC3)C2)CC(c2cc(F)cc(F)c2)=NO1 (stereo not shown) [Example I-03]
Result: 80

Request: Using the record for CCS(=O)(=O)CCOC(=O)C1C=CC(NC(=O)C2(C)CC(c3cc(F)cc(F)c3)=NO2)C1 (stereo not shown) [Example I-01] , report its Herbicidal action against [%] ECHCG.
Result: 90

Request: # lookup: Herbicidal action against [%] ECHCG of COC(=O)CSCCOC(=O)C1C=CC(NC(=O)C2(C)CC(c3cc(F)cc(F)c3)=NO2)C1 (stereo not shown) [Example I-64]
Result: 90
